Molecular target: 5-hydroxytryptamine receptor 2A (Homo sapiens) (UniProt P28223)
Sequence (P28223 whole entry, looked up): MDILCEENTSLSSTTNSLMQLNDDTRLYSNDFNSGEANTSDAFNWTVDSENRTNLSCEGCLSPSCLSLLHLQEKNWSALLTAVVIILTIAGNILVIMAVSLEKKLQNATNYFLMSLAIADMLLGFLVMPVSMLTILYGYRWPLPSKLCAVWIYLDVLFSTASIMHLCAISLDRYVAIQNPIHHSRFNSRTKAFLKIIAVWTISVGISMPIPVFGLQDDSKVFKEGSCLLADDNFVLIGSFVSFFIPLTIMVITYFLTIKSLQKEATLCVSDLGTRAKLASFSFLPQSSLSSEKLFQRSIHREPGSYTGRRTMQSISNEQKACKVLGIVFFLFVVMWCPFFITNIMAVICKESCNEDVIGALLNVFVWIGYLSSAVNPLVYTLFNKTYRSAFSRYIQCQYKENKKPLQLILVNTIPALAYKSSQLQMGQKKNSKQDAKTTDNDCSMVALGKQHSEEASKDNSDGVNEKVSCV
Assay: 5-hydroxytryptamine receptor 2A (HTR2A) small molecule agonists, cell-based qHTS assay (AID 1963587); note: nearly all actives have a fitted effect of over 30% in size
Conditions: HTR2A-CHO cells, calcium flux fluorescence, agonist mode; series mostly up to 76.8 µM
Records with an inconclusive call do not appear. Active and inactive are the calls of the source. Calls come from the whole dose curve.
Select the correct class. Options are yes (1) = active, no (0) = inactive and nothing else.

Sample answers from the record:
COMPOUND	SYSTEM NAME	ASSIGNED CLASS
COc1ccc(OC)c(C=O)c1	5-hydroxytryptamine receptor 2A (Homo sapiens) (UniProt P28223)	no (0)
CCC#N	5-hydroxytryptamine receptor 2A (Homo sapiens) (UniProt P28223)	no (0)
ClCCCCCCCl	5-hydroxytryptamine receptor 2A (Homo sapiens) (UniProt P28223)	no (0)
CCCN(CC)CC1COC2(CCC(C(C)(C)C)CC2)O1 (centres undefined)	5-hydroxytryptamine receptor 2A (Homo sapiens) (UniProt P28223)	yes (1)
CC(=O)[O][Pb]([c]1ccccc1)([c]1ccccc1)[c]1ccccc1	5-hydroxytryptamine receptor 2A (Homo sapiens) (UniProt P28223)	yes (1)

What call does the record list for "CCOC(=O)N(C)C(=O)CSP(=S)(OCC)OCC" ?
no (0)

What call does the record list for "O=C=Nc1ccc(Cl)cc1" ?
no (0)

What call does the record list for "Cc1ccn2nc(S(=O)(=O)Nc3c(F)cccc3F)nc2n1" ?
no (0)

What call does the record list for CC(=O)C(Cl)C(=O)N(C)C (centres undefined) ?
no (0)

What call does the record list for "Cc1cc(C)c(C2=C(OC(=O)CC(C)(C)C)C3(CCCC3)OC2=O)c(C)c1" ?
no (0)

What call does the record list for "CN" ?
no (0)

What call does the record list for "O=[N+]([O-])[O-].[Tl+]" ?
no (0)

====

Test: Nuclear factor erythroid 2-related factor 2/antioxidant responsive element (Nrf2/ARE) small molecule agonists: luciferase reporter gene qHTS assay in human keratinocytes (AID 1919969); note: nearly all actives have a fitted effect of over 35% in size
Conditions: KeratinoSens HaCaT ARE-luciferase, luminescence, 24 h; series mostly up to 92.4 µM
Inconclusive results are not listed. Active and inactive are the calls of the source. Calls come from the whole dose curve.
Select the correct class. Options are Yes for active, No for inactive and nothing else.

COMPOUND STRUCTURE STRING	ASSIGNED CLASS
CCCN1CCC[C@@H]2Cc3[nH]ncc3C[C@H]21	No
CN(C)c1ccc(N)cc1	Yes

Now consider the entry below.
What call does the record list for "[F][Sn]([c]1ccccc1)([c]1ccccc1)[c]1ccccc1" ?
Yes

====

Molecular target: Beta-2 adrenergic receptor (Homo sapiens) (UniProt P07550)
Sequence (P07550 whole entry, looked up): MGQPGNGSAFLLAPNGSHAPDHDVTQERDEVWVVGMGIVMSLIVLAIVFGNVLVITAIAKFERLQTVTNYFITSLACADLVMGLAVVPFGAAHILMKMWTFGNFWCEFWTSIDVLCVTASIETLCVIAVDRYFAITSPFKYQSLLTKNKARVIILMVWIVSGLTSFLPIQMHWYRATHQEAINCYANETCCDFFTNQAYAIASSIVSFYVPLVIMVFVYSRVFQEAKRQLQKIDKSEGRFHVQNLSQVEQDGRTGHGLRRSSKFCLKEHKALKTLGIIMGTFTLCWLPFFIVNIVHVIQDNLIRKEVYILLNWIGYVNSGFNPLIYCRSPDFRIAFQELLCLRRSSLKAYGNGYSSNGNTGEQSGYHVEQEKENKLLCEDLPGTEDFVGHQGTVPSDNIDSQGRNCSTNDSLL
Assay: Adrenergic beta2 receptor (ADRB2) small molecule agonists, cell-based qHTS assay (AID 1963593)
Details: CHO-ADRB2 cells, cAMP HTRF, 30 min; series mostly up to 92.4 µM
Inconclusive results are not listed. The source made the active and inactive calls. Calls come from the whole dose curve.
Select the correct class. Options are true = active, false = inactive and nothing else.

COMPOUND	SYSTEM NAME	ASSIGNED CLASS
CCCN1CCC[C@@H]2Cc3nc(N)ncc3C[C@H]21	Beta-2 adrenergic receptor (Homo sapiens) (UniProt P07550)	false
c1cc[n+]2c(c1)-c1cccc[n+]1CC2	Beta-2 adrenergic receptor (Homo sapiens) (UniProt P07550)	false
CCCSP(=S)(OCC)Oc1ccc(SC)cc1 (stereo not given)	Beta-2 adrenergic receptor (Homo sapiens) (UniProt P07550)	false
CNCC(=O)c1ccc(O)c(O)c1	Beta-2 adrenergic receptor (Homo sapiens) (UniProt P07550)	true
CCOC(=O)c1cn2nc(OP(=S)(OCC)OCC)cc2nc1C	Beta-2 adrenergic receptor (Homo sapiens) (UniProt P07550)	false
CCCCCCCCCC(=O)O[C@H]1CC[C@H]2[C@@H]3CCC4=CC(=O)CC[C@@H]4[C@H]3CC[C@]12C	Beta-2 adrenergic receptor (Homo sapiens) (UniProt P07550)	false
ClC1=C(Cl)[C@]2(Cl)[C@@H]3[C@@H]4C[C@@H]([C@H]5O[C@@H]45)[C@@H]3[C@@]1(Cl)C2(Cl)Cl	Beta-2 adrenergic receptor (Homo sapiens) (UniProt P07550)	true
CCCOc1nn(C(=O)NS(=O)(=O)c2ccccc2C(=O)OC)c(=O)n1C	Beta-2 adrenergic receptor (Homo sapiens) (UniProt P07550)	false

What call does the record list for "CCC(C)(c1ccc(O)cc1)c1ccc(O)cc1" ?
false

What call does the record list for "O=C(O)c1cc(I)cc(I)c1I" ?
false

What call does the record list for "O=C(Cl)c1ccc(Cl)cc1" ?
false

What call does the record list for CC(O)C#N (stereo not given) ?
false

What call does the record list for "C[C@H](N)[C@H](O)c1ccc(O)c(O)c1" ?
true

What call does the record list for O=C(O)C(O)C(O)C(=O)O (stereo not given) ?
false

What call does the record list for "COP(=S)(OC)Oc1cc(Cl)c(Br)cc1Cl" ?
false

What call does the record list for CCNP(=S)(OC)O/C(C)=C/C(=O)OC(C)C (stereo not given) ?
false

====

Assay: p53 small molecule agonists, cell-based qHTS assay: qHTS cell viability counter screen (AID 1963581); note: nearly all actives have a fitted effect of over 45% in size
Conditions: p53RE-bla HCT-116 viability, ATP luminescence, 16 h; series mostly up to 66 µM
Records with an inconclusive call do not appear. Calls of active or inactive are those of the source. The call rests on the fitted dose curve.
Select the correct class. Options are 1.0 (active), 0.0 (inactive) and nothing else.

COMPOUND	ASSIGNED CLASS
CC(C)CC#N	0.0
C/C(=C\c1ccccc1)[N+](=O)[O-]	0.0

What call does the record list for "ClCBr" ?
0.0

What call does the record list for CC(C)(C)C(O)C(Oc1ccc(Cl)cc1)n1cncn1 (stereo not drawn) ?
0.0

What call does the record list for CC(C)C(Nc1ccc(C(F)(F)F)cc1Cl)C(=O)OC(C#N)c1cccc(Oc2ccccc2)c1 (stereo not drawn) ?
0.0

What call does the record list for "CC1(C)COP(Oc2ccccc2)OC1" ?
0.0

====

Molecular target: D(2) dopamine receptor (Homo sapiens)
Experiment: Dopamine D2 receptor (DRD2) small molecule agonists, cell-based qHTS assay (AID 1963594); note: nearly all actives have a fitted effect of over 35% in size
Settings: HEK293-DRD2 cAMP HTRF, agonist mode, 30 min; series mostly up to 92.4 µM
Inconclusive results are not listed. Active and inactive are the calls of the source. The call rests on the fitted dose curve.
Select the correct class. Options are true for active, false for inactive and nothing else.

Sample answers from the record:
MOLECULE	ASSIGNED CLASS
CC(C)[C@H](C(=O)OC(C#N)c1cccc(Oc2ccccc2)c1)c1ccc(OC(F)F)cc1 (some centres not stated)	false
CC(C)(N)Cc1ccc(Cl)cc1	false
C#CCN1C(=O)COc2cc(F)c(N3C(=O)C4=C(CCCC4)C3=O)cc21	false
CCOP(=S)(OCC)SCS(=O)(=O)CC	false

What call does the record list for "Nc1cc(Cl)ccc1O" ?
false

What call does the record list for "CN(C)[C@@H]1C(=O)C(C(N)=O)=C(O)[C@@]2(O)C(=O)C3=C(O)c4c(O)ccc(Cl)c4[C@@](C)(O)[C@H]3C[C@@H]12" ?
false

What call does the record list for CN1[C@@H]2CC[C@H]1CC(O)C2 (some centres not stated) ?
false

What call does the record list for C=CC(C)(CCC=C(C)C)OC(=O)c1ccccc1N (configuration not stated) ?
false

What call does the record list for "COP(=S)(OC)Oc1nc(Cl)c(Cl)cc1Cl" ?
false

What call does the record list for "CNC(=O)O/N=C(/CSC)C(C)(C)C" ?
false

What call does the record list for "CC(=O)[O-].CC(=O)[O-].O.O.[Zn+2]" ?
false

What call does the record list for "N[C@@H](Cc1ccc(Oc2cc(I)c(O)c(I)c2)c(I)c1)C(=O)O" ?
false

====

Assay: Nuclear factor erythroid 2-related factor 2/antioxidant responsive element (Nrf2/ARE) small molecule agonists: luciferase reporter gene qHTS assay in human keratinocytes (AID 1919969); note: nearly all actives have a fitted effect of over 35% in size
Details: KeratinoSens HaCaT ARE-luciferase, luminescence, 24 h; series mostly up to 92.4 µM
Results filed as inconclusive are left out. The source made the active and inactive calls. The call rests on the fitted dose curve.
Select the correct class. Options are active, inactive and nothing else.

Sample answers from the record:
COMPOUND	ASSIGNED CLASS
ClCCCN1CCN(c2cccc(Cl)c2)CC1	inactive
CCOP(=O)(OCC)O/C(=C/Cl)c1ccc(Cl)cc1Cl	inactive
Cc1cc(C2CC2)nc(Nc2ccccc2)n1	active
Fc1ccc(C2(Cn3cncn3)OC2c2ccccc2Cl)cc1 (stereo not given)	inactive
Cc1ccc(N(SC(F)(Cl)Cl)S(=O)(=O)N(C)C)cc1	active

What call does the record list for "CO/N=C(/C(=O)OC)c1ccccc1COc1ccccc1C" ?
inactive

What call does the record list for "C[N+](C)=CCl" ?
inactive

What call does the record list for "COc1nn(CSP(=S)(OC)OC)c(=O)s1" ?
active

What call does the record list for "CCOC(=O)NC(=S)Nc1ccccc1NC(=S)NC(=O)OCC" ?
active

What call does the record list for "S=C=Nc1cccc2ccccc12" ?
active

What call does the record list for "O=C(O)c1cc[c]([Hg][Cl])cc1" ?
active

What call does the record list for "C/C=C/C=O" ?
active

What call does the record list for CC(C)(C)C(=O)C(Oc1ccc(Cl)cc1)n1cncn1 (stereo not given) ?
inactive

What call does the record list for "CO/N=C(\C(=O)OC)c1ccccc1CO/N=C(\C)c1cccc(C(F)(F)F)c1" ?
inactive

What call does the record list for "CCC1(CCC(C)C)C(=O)NC(=O)NC1=O" ?
inactive

What call does the record list for "CN(C)C1CSSSC1" ?
active

What call does the record list for "ClCCCCCCCl" ?
inactive

What call does the record list for COC(=O)C(c1ccccc1)C1CCCCN1 (stereo not given) ?
inactive

What call does the record list for CC(C)(C)C(O)C(Oc1ccc(Cl)cc1)n1cncn1 (stereo not given) ?
active

What call does the record list for "CC1=NNC(=O)N(/N=C/c2cccnc2)C1" ?
inactive
